Test: protein stability index of a GFP-peptide fusion (yeast GPS) (PSI 1-4); higher = more stable; sorted into four equal gates, so the index is relative within each strain
Conditions: doa10∆
Outcome: Fulfilled for protein stability index of at least 2; Not fulfilled for anything lower.

Item sequence	Label class
VKIIRKSETSGRYASYR [RPB5]	Fulfilled
LDDPEAVSKDPLLTKRK [DIS3]	Fulfilled
AELKLAGEFGLKNKREI [RPS9B]	Fulfilled

Lookup: Kindly determine if protein stability index recorded for DDYDYVMYGTAYKFEEV [RPB8] is above or exactly 2.
Found: Fulfilled

Lookup: Given DVKLVLASNFDNFDYFN [MED1] , state whether its protein stability index is at least 2.
Found: Fulfilled

Lookup: Threshold query (protein stability index >= 2) on KNIPKTRYNRDYMLSMA [SNU114]
Found: Not fulfilled

----------
Test: protein stability index of a GFP-peptide fusion (yeast GPS) (PSI 1-4); higher = more stable; sorted into four equal gates, so the index is relative within each strain
Conditions: san1∆
So basically every entry gets a class from its protein stability index, ranges being LOW (below 2), MEDIUM (2 to below 3), HIGH (3 or more)

Study these solved cases before continuing.
Item sequence	Label class
AKIDVMLTIARLGFFYN [RPN7]	HIGH
YSALNSTYLPKLISAFD [RRP42]	MEDIUM
SFKGSPNERKAKQAKIR [SNF2]	HIGH
DEGGAKSLLLNTLNIDN [BRN1]	HIGH
HEIYGSMPLEQLIPIIL [SRB4]	MEDIUM

Lookup: Form field 'band' for LLHNHLKSIESLKLENS [SMC2]
Found: LOW

Lookup: Lab note: sort TFDGKPTATPSPFRPLE [YMR153W/NUP53] into the matching protein stability index band.
Found: MEDIUM

Lookup: Returns: class label. Input: RPDIVHTVFTSVNKNKR [RPL4A]
Found: LOW

Lookup: Bin? LGKVRFANYKLLLKKII [SRB4]
Found: LOW

----------
Experiment: protein stability index of a GFP-peptide fusion (yeast GPS) (PSI 1-4); higher = more stable; sorted into four equal gates, so the index is relative within each strain
Conditions: san1∆
protein stability index reference
Format: numeric value only, no unit, no commentary.

In the examples that follow, each entry is paired with its recorded protein stability index.
Item sequence	Endpoint label	Test result
NQSSFNFGNNGAGGLNP [YOR098C/NUP1]	protein stability index	3.2
MSLQHEKVTIAPLVLLS [RPN8]	protein stability index	1.2
SNVLDGNKNQFEPSISR [LRP1]	protein stability index	3.12

Lookup: Entry PSSQSQNDTPMFKLGNF [YLR018C/POM34] has what protein stability index?
Found: 2.79

Lookup: Return reported protein stability index; argument: IDEPIKSIMDGIHDGHI [FAS1]
Found: 1.52

Lookup: Given the entry AIRKAPHNSKSLGFLQQ [RPN3] , report its measured protein stability index.
Found: 2.84

----------
Assay: protein stability index of a GFP-peptide fusion (yeast GPS) (PSI 1-4); higher = more stable; sorted into four equal gates, so the index is relative within each strain
Conditions: san1∆
Endpoint label: protein stability index
When you answer, write just the number.

Use the examples below as a reference point.
Item sequence	Endpoint label	Test result
LYPIFLLDDKKLMDEDS [YJR042W/NUP85]	protein stability index	1.38
SHNWAAKAKRRHTTGTG [RPL37B]	protein stability index	3.33
RNEDARRNLRYGDRMKL [RPO31]	protein stability index	3.21
FPEENIIDAKTRNEQTT [MCD1]	protein stability index	3.19

Lookup: Tell me the measured protein stability index of SMNATMRNFSKQNQDSK [YDL088C/ASM4] , please.
Found: 1.94

Lookup: Please give the measured protein stability index for this sequence: ASTGSGKTLAFVIPILI [PRP28]
Found: 1.48

Lookup: State the recorded protein stability index for this entry: QQPNPLQDLISVYGLDD [ROX3]
Found: 2.02
